Tested on: NCI-H460
assay name: MTT cytotoxicity assay in normoxia and hypoxia, NCI-H460
Type: cell-based, Human
experimental parameters: Homo sapiens, NCI-H460, 24 h, read-out: Cytotoxicity (IC50) NCI-H460 N
Task for the reader: assign each of the following molecules its reported IC50.
Numeric answer only, unit µM assumed.

Find the recorded IC50 belonging to NCCCCCCCNc1n[n+]([O-])c2ccccc2[n+]1[O-] [Compound 8f] and report it.
79.4

Now the molecule NCCCCCCCCNc1n[n+]([O-])c2ccccc2[n+]1[O-] [Compound 8g]
82.7

Now the molecule [O-][n+]1nc(NCCNc2n[n+]([O-])c3ccccc3[n+]2[O-])nc2ccccc21 [Compound 9a]
43.7
